tested on: SW-620 colon; test: NCI-60 one-dose screen, 48 h (100 = growth as untreated, 0 = no growth, -100 = all killed); settings: 10 µM
The panel holds about 83,000 compounds, 20% with a hit somewhere; the sample as a whole holds those more often.
measured.quantity: growth (%)

1) COc1ccc2nc3cc(Cl)ccc3c(Nc3cc(CN4CCCC4)c(O)c(CN4CCCC4)c3)c2n1 | 7.17
2) C[C@@H](O)[C@H]1C(=O)N2C(C(=O)O)=C(SCCN=CN)C[C@H]12 | -0.331
3) CCCCN(CCCC)C(=O)[C@H](CC)[C@@H]1CC[C@@H](C)[C@@H]([C@H](C)[C@@H](O)[C@@H](C)C(=O)[C@H](CC)C2O[C@]3(C=C[C@@H](O)[C@]4(CC[C@@](C)([C@H]5CC[C@](O)(CC)[C@H](C)O5)O4)O3)[C@H](C)C[C@@H]2C)O1 (stereo partly drawn) | 9.41

These entries and their values trace back to PubChem BioAssay (NCI).
